meta.source: patent US20070149481A1

# TEST TARGET: GSK3β (Homo sapiens, UniProt P49841)
# Construct: purchased Upstate Discovery
# Sequence (P49841 whole entry, species assumed): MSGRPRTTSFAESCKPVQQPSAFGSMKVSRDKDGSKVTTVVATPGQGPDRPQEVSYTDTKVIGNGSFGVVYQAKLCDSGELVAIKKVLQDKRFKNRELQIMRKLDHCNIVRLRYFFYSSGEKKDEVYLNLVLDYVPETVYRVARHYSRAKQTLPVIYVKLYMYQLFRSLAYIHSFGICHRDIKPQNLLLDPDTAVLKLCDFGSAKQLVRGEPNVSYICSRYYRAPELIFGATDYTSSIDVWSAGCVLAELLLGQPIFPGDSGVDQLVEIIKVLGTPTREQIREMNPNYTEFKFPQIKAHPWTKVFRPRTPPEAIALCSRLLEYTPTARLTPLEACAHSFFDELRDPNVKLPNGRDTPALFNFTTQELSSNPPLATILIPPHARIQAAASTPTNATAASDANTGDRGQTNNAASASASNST
# TEST: Glycogen Synthase Kinase 3β inhibition assay (GSK3β)
# Type: biochemical
# RUN CONDITIONS: 10 μM compound
VALUE TYPE: inhibition at 10 µM (%)
Just the number in %, nothing appended.

Guide cases for inhibition at 10 µM, answers given:
{"COMPOUND": "[N-]=[N+]=NC1C2CC([C@H]1O)n1c3ccccc3c3c4c(c5c6ccccc6n2c5c31)C(=O)NC4=O (mixture of isomers)", "inhibition at 10 µM (%)": 96.9}
{"COMPOUND": "CNC(=O)[C@]1(N)CC2CC1n1c3ccccc3c3c4c(c5c6ccccc6n2c5c31)C(=O)NC4=O (mixture of isomers)", "inhibition at 10 µM (%)": 99.2}
{"COMPOUND": "COC(=O)[C@]1(N)CC2CC1n1c3ccccc3c3c4c(c5c6ccccc6n2c5c31)C(=O)NC4=O (stereo partly drawn)", "inhibition at 10 µM (%)": 96.9}

Okay, now this compound:
Input: Please report the measured inhibition at 10 µM for N[C@@]1(C(=O)NCCO)CC2CC1n1c3ccccc3c3c4c(c5c6ccccc6n2c5c31)C(=O)NC4=O (mixture of isomers) tested on GSK3β (Homo sapiens, UniProt P49841).
Output: 99.2

---

# System: PKC (rat brain)
# TEST: Protein Kinase C inhibition assay (PKC)
# Assay type: biochemical
# RUN CONDITIONS: 10 μM compound
# Text: The ERK2 kinase activity assay utilizes a radioactivity-based format in a 96-well PCR plate with radioactive readout. […] The bag containing the filtermat and the melted Meltilex was then placed into a filter cassette and counted using the Microbeta Jet Scintillation and Luminescence Counter PE-Wallac 1450. The PKC kinase activity assay utilizes a radioactivity-based format in a 96-well PCR plate with radioactive readout. […]
// reported % Inhibition PKC per item
The answer should read as a number with its unit following.

Guide cases for % Inhibition PKC, answers given:
{"COMPOUND": "COc1ccc(CN2C(=O)c3c(c4c5ccccc5n5c4c4c3c3ccccc3n4C3CC5[C@@H](N4CCOCC4)C3)C2=O)cc1 (stereo partly drawn) [Compound 26]", "TEST TARGET": "PKC (rat brain)", "VALUE TYPE": "% Inhibition PKC", "ASSAY VALUE": "10.18%"}
{"COMPOUND": "COC(=O)[C@]1(N)CC2CC1n1c3ccccc3c3c4c(c5c6ccccc6n2c5c31)C(=O)NC4=O (stereo partly drawn) [Compound 8]", "TEST TARGET": "PKC (rat brain)", "VALUE TYPE": "% Inhibition PKC", "ASSAY VALUE": "59.42%"}
{"COMPOUND": "COc1ccc(CN2C(=O)c3c(c4c5ccccc5n5c4c4c3c3ccccc3n4C3CC(NCCO)C5C3)C2=O)cc1 (stereo not drawn) [Compound 25]", "TEST TARGET": "PKC (rat brain)", "VALUE TYPE": "% Inhibition PKC", "ASSAY VALUE": "15.94%"}
{"COMPOUND": "CNC1(C#N)CC2CC1n1c3ccccc3c3c4c(c5c6ccccc6n2c5c31)C(=O)N(Cc1ccc(OC)cc1)C4=O (stereo not drawn) [Compound 27]", "TEST TARGET": "PKC (rat brain)", "VALUE TYPE": "% Inhibition PKC", "ASSAY VALUE": "32.18%"}
{"COMPOUND": "CCNC(=O)C1(N)CC2CC1n1c3ccccc3c3c4c(c5c6ccccc6n2c5c31)C(=O)NC4=O (stereo not drawn) [Compound 41]", "TEST TARGET": "PKC (rat brain)", "VALUE TYPE": "% Inhibition PKC", "ASSAY VALUE": "83.88%"}

Okay, now this compound:
Input: For the compound N[C@@]1(C(=O)O)CC2CC1n1c3ccccc3c3c4c(c5c6ccccc6n2c5c31)C(=O)NC4=O (stereo partly drawn) [Compound 7] , give its reported % Inhibition PKC.
Output: 85.71%

---

# TEST TARGET: GSK3β (Homo sapiens, UniProt P49841)
# Construct: purchased Upstate Discovery
# TEST: Glycogen Synthase Kinase 3β inhibition assay (GSK3β)
# Type: biochemical
# RUN CONDITIONS: 10 μM compound
// reported % Inhibition GSK3β per item
Just the number in %, nothing appended.

Guide cases for % Inhibition GSK3β, answers given:
{"MOLECULE": "O=C1NC(=O)c2c1c1c3ccccc3n3c1c1c2c2ccccc2n1C1CC3CC1NCc1ccccc1 (stereo not shown)", "VALUE TYPE": "% Inhibition GSK3β", "ASSAY VALUE": 72.56}
{"MOLECULE": "NC1(C(=O)NCCO)CC2CC1n1c3ccccc3c3c4c(c5c6ccccc6n2c5c31)C(=O)N(CCO)C4=O (stereo not shown)", "VALUE TYPE": "% Inhibition GSK3β", "ASSAY VALUE": 80.46}

Okay, now this molecule:
Input: Please report the measured % Inhibition GSK3β for CNC1(C#N)CC2CC1n1c3ccccc3c3c4c(c5c6ccccc6n2c5c31)C(=O)N(Cc1ccc(OC)cc1)C4=O (stereo not shown) tested on GSK3β (Homo sapiens, UniProt P49841).
Output: 18.28

---

# TEST TARGET: GSK3β (Homo sapiens)
# Construct: purchased Upstate Discovery
# TEST: Glycogen Synthase Kinase 3β inhibition assay (GSK3β)
# Type: biochemical
# RUN CONDITIONS: 10 μM compound
// reported % Inhibition GSK3β per item
Just the number in %, nothing appended.

Guide cases for % Inhibition GSK3β, answers given:
{"MOLECULE": "CCNC(=O)C1(N)CC2CC1n1c3ccccc3c3c4c(c5c6ccccc6n2c5c31)C(=O)NC4=O (stereo not shown) [Compound 41]", "ASSAY VALUE": 95.80}
{"MOLECULE": "COc1ccc(CN2C(=O)c3c(c4c5ccccc5n5c4c4c3c3ccccc3n4C3CC5C(N)(C(=O)O)C3)C2=O)cc1 (stereo not shown) [Compound 36]", "ASSAY VALUE": 82.71}
{"MOLECULE": "N#CC1(NC(=O)C(F)(F)F)CC2CC1n1c3ccccc3c3c4c(c5c6ccccc6n2c5c31)C(=O)NC4=O (stereo not shown) [Compound 32]", "ASSAY VALUE": 72.20}

Input: For the molecule O=C1NC(=O)c2c1c1c3ccccc3n3c1c1c2c2ccccc2n1C1CC3CC1N1CCCCC1 (stereo not shown) [Compound 29] , give its reported % Inhibition GSK3β.
Output: 54.14

---

# TEST TARGET: GSK3β (Homo sapiens, UniProt P49841)
# Construct: purchased Upstate Discovery
# TEST: Glycogen Synthase Kinase 3β inhibition assay (GSK3β)
# Format: biochemical
# RUN CONDITIONS: 10 μM compound
// reported inhibition at 10 µM per item

Guide cases for inhibition at 10 µM, answers given:
{"COMPOUND": "COc1ccc(CN2C(=O)c3c(c4c5ccccc5n5c4c4c3c3ccccc3n4C3CC5[C@]4(C3)NC(=O)NC4=O)C2=O)cc1 (mixture of isomers)", "inhibition at 10 µM": "< 10%"}
{"COMPOUND": "COc1ccc(CN2C(=O)c3c(c4c5ccccc5n5c4c4c3c3ccccc3n4C3CC5[C@@H](N)C3)C2=O)cc1 (mixture of isomers)", "inhibition at 10 µM": "< 10%"}

Okay, now this compound:
Input: For the compound O=C1NC(=O)c2c1c1c3ccccc3n3c1c1c2c2ccccc2n1C1CC3C[C@@H]1N1CCOCC1 (mixture of isomers) , give its reported inhibition at 10 µM.
Output: 19.3%

---

# System: PKC (rat brain)
# TEST: Protein Kinase C inhibition assay (PKC)
# Type: biochemical
# RUN CONDITIONS: 10 μM compound
// reported % Inhibition PKC per item
Just the number in %, nothing appended.

{"COMPOUND": "O=C(O)c1cn([C@@H]2C3CC([C@H]2O)n2c4ccccc4c4c5c(c6c7ccccc7n3c6c42)C(=O)NC5=O)nn1 (mixture of isomers) [Compound 18]", "ASSAY VALUE": 21.55}
{"COMPOUND": "CNC(=O)[C@]1(N)CC2CC1n1c3ccccc3c3c4c(c5c6ccccc6n2c5c31)C(=O)NC4=O (mixture of isomers) [Compound 10]", "ASSAY VALUE": 90.75}
{"COMPOUND": "COc1ccc(CN2C(=O)c3c(c4c5ccccc5n5c4c4c3c3ccccc3n4C3CC5[C@@H](N)C3)C2=O)cc1 (mixture of isomers) [Compound 1]", "ASSAY VALUE": 49.73}
{"COMPOUND": "N#CC1(NC(=O)C(F)(F)F)CC2CC1n1c3ccccc3c3c4c(c5c6ccccc6n2c5c31)C(=O)NC4=O (stereo not shown) [Compound 32]", "ASSAY VALUE": 49.33}
{"COMPOUND": "[N-]=[N+]=NC1C2CC([C@H]1O)n1c3ccccc3c3c4c(c5c6ccccc6n2c5c31)C(=O)NC4=O (mixture of isomers) [Compound 15]", "ASSAY VALUE": 88.68}
{"COMPOUND": "COc1ccc(CN2C(=O)c3c(c4c5ccccc5n5c4c4c3c3ccccc3n4C3CC5[C@]4(C3)NC(=O)N(C)C4=O)C2=O)cc1 (mixture of isomers) [Compound 14]", "ASSAY VALUE": 34.01}
{"COMPOUND": "N#C[C@]1(N)CC2CC1n1c3ccccc3c3c4c(c5c6ccccc6n2c5c31)C(=O)NC4=O (mixture of isomers) [Compound 4]", "ASSAY VALUE": 78.10}
{"COMPOUND": "COc1ccc(CN2C(=O)c3c(c4c5ccccc5n5c4c4c3c3ccccc3n4C3CC5C(N)(C(=O)O)C3)C2=O)cc1 (stereo not shown) [Compound 36]", "ASSAY VALUE": 65.10}
{"COMPOUND": "NC1(C(=O)NCCO)CC2CC1n1c3ccccc3c3c4c(c5c6ccccc6n2c5c31)C(=O)N(CCO)C4=O (stereo not shown) [Compound 37]", "ASSAY VALUE": 53.92}
{"COMPOUND": "COc1ccc(CN2C(=O)c3c(c4c5ccccc5n5c4c4c3c3ccccc3n4C3CC(N4CCCCC4)C5C3)C2=O)cc1 (stereo not shown) [Compound 24]", "ASSAY VALUE": 28.18}

Input: Please report the measured % Inhibition PKC for CCOC(=O)[C@]1(N)CC2CC1n1c3ccccc3c3c4c(c5c6ccccc6n2c5c31)C(=O)N(Cc1ccc(OC)cc1)C4=O (stereo partly shown) [Compound 35] tested on PKC (rat brain).
Output: 28.47

Input: Please report the measured % Inhibition PKC for NC(=O)[C@]1(N)CC2CC1n1c3ccccc3c3c4c(c5c6ccccc6n2c5c31)C(=O)NC4=O (mixture of isomers) [Compound 5] tested on PKC (rat brain).
Output: 91.62

Input: Please report the measured % Inhibition PKC for COC(=O)c1cn([C@@H]2C3CC([C@H]2O)n2c4ccccc4c4c5c(c6c7ccccc7n3c6c42)C(=O)NC5=O)nn1 (mixture of isomers) [Compound 17] tested on PKC (rat brain).
Output: 96.75

Input: Please report the measured % Inhibition PKC for O=C1NC(=O)c2c1c1c3ccccc3n3c1c1c2c2ccccc2n1C1CC3C[C@@H]1N1CCOCC1 (mixture of isomers) [Compound 3] tested on PKC (rat brain).
Output: 75.80

Input: Please report the measured % Inhibition PKC for O=C1NC(=O)c2c1c1c3ccccc3n3c1c1c2c2ccccc2n1C1CC3CC1NCc1ccccc1 (stereo not shown) [Compound 23] tested on PKC (rat brain).
Output: 70.41

Input: Please report the measured % Inhibition PKC for COc1ccc(CN2C(=O)c3c(c4c5ccccc5n5c4c4c3c3ccccc3n4C3CC5[C@]4(C3)NC(=O)NC4=O)C2=O)cc1 (mixture of isomers) [Compound 13] tested on PKC (rat brain).
Output: 13.67
